Recorded pIC50 by entry
# system_under_test: thrombin (Homo sapiens)
pIC50: −log10 of the molar value.

>>> result("N=C(N)c1cnc(CNC(=O)[C@@H]2CCN2C(=O)[C@H](O)c2cc(Cl)cc(OC(F)F)c2)nc1")
"> 5.46"

Next item in the queue.
Give recorded pIC50 with thrombin (Homo sapiens) for the following compound: `N=C(N)c1ccc(CNC(=O)[C@@H]2CCN2C(=O)[C@H](O)c2cc(Cl)cc(OC(F)F)c2)cn1`
> 7.70
